Experiment: Caco-2 permeability assay with pH 7.4 buffer or human plasma in both chambers
Settings: human, Caco-2, pH 7.4, Papp A-B, buffer pH 7.4 in both chambers
Label Fulfilled when Papp A→B is strictly below 3 ×10⁻⁶ cm/s; at or above that, label Not fulfilled.

Molecule: CC(C)(C)NC(=O)[C@@H]1C[C@@H]2CCCC[C@@H]2CN1C[C@@H](O)[C@H](Cc1ccccc1)NC(=O)[C@H](CC(N)=O)NC(=O)c1ccc2ccccc2n1
Class Assignment: Fulfilled
--
Molecule: COCCc1ccc(OCC(O)CNC(C)C)cc1 (centres unmarked)
Class Assignment: Not fulfilled
--
Molecule: CNC(=C[N+](=O)[O-])NCCSCc1ccc(CN(C)C)o1
Class Assignment: Fulfilled
--
Molecule: OC[C@@H](O)[C@@H](O)[C@H](O)[C@H](O)CO [^14C-Mannitol, D-[1-^14C]-mannitol]
Class Assignment: Fulfilled
--
Molecule: CN/C(=N/CCSCc1nc[nH]c1C)NC#N
Class Assignment: Fulfilled
--
Molecule: CC(=O)Nc1ccc(O)cc1
Class Assignment: Not fulfilled
--
Molecule: CCN(CC)Cc1cc(Nc2ccnc3cc(Cl)ccc23)ccc1O
Class Assignment: Not fulfilled
--
Molecule: OC(c1cc(C(F)(F)F)nc2c(C(F)(F)F)cccc12)C1CCCCN1 (centres unmarked)
Class Assignment: Fulfilled
--
Molecule: COC(=O)c1ccccc1-c1c2ccc(=N)cc-2oc2cc(N)ccc12
Class Assignment: Fulfilled
--
Molecule: C[C@H]1O[C@@H](O[C@H]2[C@@H](O)C[C@H](O[C@H]3[C@@H](O)C[C@H](O[C@H]4CC[C@@]5(C)[C@H](CC[C@@H]6[C@@H]5C[C@@H](O)[C@]5(C)[C@@H](C7=CC(=O)OC7)CC[C@]65O)C4)O[C@@H]3C)O[C@@H]2C)C[C@H](O)[C@@H]1O [^3H-Digoxin, [^3H(G)]-digoxin]
Class Assignment: Fulfilled
--
Molecule: CC(C)NCC(O)COc1cccc2ccccc12 (centres unmarked)
Class Assignment: Not fulfilled

###

Experiment: Caco-2 permeability assay with pH 7.4 buffer or human plasma in both chambers
Details: human, Caco-2, pH 7.4
Property Label: Papp B→A

Compound: CCCCN(CCCC)CCC(O)c1cc2c(Cl)cc(Cl)cc2c2cc(C(F)(F)F)ccc12 (stereo not shown)
Value: > 300 ×10⁻⁶ cm/s

###

System: Caco-2 cell monolayer
Assay: Caco-2 permeability assay with pH 7.4 buffer or human plasma in both chambers
Settings: human plasma in both chambers
Property Label: Mass balance A-B (%)

Compound: OC[C@@H](O)[C@@H](O)[C@H](O)[C@H](O)CO [^14C-Mannitol, D-[1-^14C]-mannitol]
Value: 96
//
Compound: O=C1C(O)=C([C@H]2CC[C@H](c3ccc(Cl)cc3)CC2)C(=O)c2ccccc21
Value: 99
//
Compound: Clc1ccc2c(N3CCN(CCCN4CCN(c5ccnc6cc(Cl)ccc56)CC4)CC3)ccnc2c1
Value: 100
//
Compound: COC(=O)c1ccccc1-c1c2ccc(=N)cc-2oc2cc(N)ccc12
Value: 98

###

Test: Caco-2 permeability assay with pH 7.4 buffer or human plasma in both chambers
Conditions: human, Caco-2, pH 7.4
Property Label: Papp A→B

Molecule: CCCCN(CCCC)CCC(O)c1cc2c(Cl)cc(Cl)cc2c2cc(C(F)(F)F)ccc12 (stereo not shown)
Property Label: Papp A→B
Value: > 300 ×10⁻⁶ cm/s

###

System: Caco-2 cell monolayer
Test: Caco-2 permeability assay with pH 7.4 buffer or human plasma in both chambers
Conditions: buffer pH 7.4; criteria of Table V

Compound: CCN(CC)Cc1cc(Nc2ccnc3cc(Cl)ccc23)ccc1O
Permeability Classification: Intermediate
//
Compound: O=C1C(O)=C([C@H]2CC[C@H](c3ccc(Cl)cc3)CC2)C(=O)c2ccccc21
Permeability Classification: Low (Papp < 0.839)
//
Compound: Clc1ccc2c(N3CCN(CCCN4CCN(c5ccnc6cc(Cl)ccc56)CC4)CC3)ccnc2c1
Permeability Classification: Low (Papp < 0.839)
//
Compound: CCCCN(CCCC)CCC(O)c1cc2c(Cl)cc(Cl)cc2c2cc(C(F)(F)F)ccc12 (stereo not drawn)
Permeability Classification: Low (Papp < 0.839)
//
Compound: OC(c1cc(C(F)(F)F)nc2c(C(F)(F)F)cccc12)C1CCCCN1 (stereo not drawn)
Permeability Classification: Intermediate

###

Assay: Caco-2 permeability assay with pH 7.4 buffer or human plasma in both chambers
Details: human, Caco-2, pH 7.4, Efflux ratio (B-A/A-B), human plasma in both chambers
# efflux ratio values compiled below

Molecule: OC[C@@H](O)[C@@H](O)[C@H](O)[C@H](O)CO [^14C-Mannitol, D-[1-^14C]-mannitol]
efflux ratio: 1.4

Molecule: CCN(CC)Cc1cc(Nc2ccnc3cc(Cl)ccc23)ccc1O
efflux ratio: 0.7

Molecule: OC(c1cc(C(F)(F)F)nc2c(C(F)(F)F)cccc12)C1CCCCN1 (stereo not shown)
efflux ratio: 0.83

Molecule: COC(=O)c1ccccc1-c1c2ccc(=N)cc-2oc2cc(N)ccc12
efflux ratio: 12

###

Test system: Caco-2 cell monolayer
Assay: Caco-2 permeability assay with pH 7.4 buffer or human plasma in both chambers
Settings: buffer (HBSS/HEPES pH 7.4) in both chambers
The label depends only on Mass balance A-B: 1.0 if it is at least 90%, 0.0 if it is smaller.

Molecule: CNC(=C[N+](=O)[O-])NCCSCc1ccc(CN(C)C)o1
Experimental Target: Caco-2 cell monolayer
Class Assignment: 1.0
//
Molecule: CCCCN(CCCC)CCC(O)c1cc2c(Cl)cc(Cl)cc2c2cc(C(F)(F)F)ccc12 (stereo not shown)
Experimental Target: Caco-2 cell monolayer
Class Assignment: 0.0
//
Molecule: OC[C@@H](O)[C@@H](O)[C@H](O)[C@H](O)CO [^14C-Mannitol, D-[1-^14C]-mannitol]
Experimental Target: Caco-2 cell monolayer
Class Assignment: 1.0
//
Molecule: O=C1C(O)=C([C@H]2CC[C@H](c3ccc(Cl)cc3)CC2)C(=O)c2ccccc21
Experimental Target: Caco-2 cell monolayer
Class Assignment: 0.0
//
Molecule: CCN(CC)Cc1cc(Nc2ccnc3cc(Cl)ccc23)ccc1O
Experimental Target: Caco-2 cell monolayer
Class Assignment: 0.0
//
Molecule: OC(c1cc(C(F)(F)F)nc2c(C(F)(F)F)cccc12)C1CCCCN1 (stereo not shown)
Experimental Target: Caco-2 cell monolayer
Class Assignment: 0.0
//
Molecule: Clc1ccc2c(N3CCN(CCCN4CCN(c5ccnc6cc(Cl)ccc56)CC4)CC3)ccnc2c1
Experimental Target: Caco-2 cell monolayer
Class Assignment: 0.0
//
Molecule: COC(=O)c1ccccc1-c1c2ccc(=N)cc-2oc2cc(N)ccc12
Experimental Target: Caco-2 cell monolayer
Class Assignment: 1.0
//
Molecule: CC(C)(C)NC(=O)[C@@H]1C[C@@H]2CCCC[C@@H]2CN1C[C@@H](O)[C@H](Cc1ccccc1)NC(=O)[C@H](CC(N)=O)NC(=O)c1ccc2ccccc2n1
Experimental Target: Caco-2 cell monolayer
Class Assignment: 0.0

###

System: Caco-2 cell monolayer
Assay: Caco-2 permeability assay with pH 7.4 buffer or human plasma in both chambers
Conditions: human plasma in both chambers
Marks after values point to notes of the source that are not given here.

Molecule: CC(C)(C)NC(=O)[C@@H]1C[C@@H]2CCCC[C@@H]2CN1C[C@@H](O)[C@H](Cc1ccccc1)NC(=O)[C@H](CC(N)=O)NC(=O)c1ccc2ccccc2n1 [Saquinavir]
Mass balance A-B: 100 ± 7.2^b %
--
Molecule: CCN(CC)Cc1cc(Nc2ccnc3cc(Cl)ccc23)ccc1O [Amodiaquine, amodiaquine]
Mass balance A-B: 81 ± 6.1^b %
--
Molecule: OC(c1cc(C(F)(F)F)nc2c(C(F)(F)F)cccc12)C1CCCCN1 (stereo not drawn) [Mefloquine, mefloquine]
Mass balance A-B: 70 ± 2.6^b %
